System: Plasmodium falciparum
Assay: Antimalarial activity against chloroquine-sensitive Plasmodium falciparum D6 assessed as inhibition of [3H]hypoxanthine incorporation after 96 hrs by microtiter plate scintillation counting
Type: functional, organism-based
METRIC NAME: pIC50
Interpret pIC50 as the negative base-10 log of the concentration measured in mol/L.

What pIC50 value was documented for this compound, CC[C@H]1OC(=O)[C@H](C)[C@@H](O[C@H]2C[C@@](C)(OC)[C@@H](O)[C@H](C)O2)[C@H](C)[C@@H](O[C@@H]2O[C@H](C)C[C@H](N(C)C)[C@H]2O)[C@](C)(O)C[C@@H](C)CN(CCCNC(=S)NCCCN(CC)CC)[C@H](C)[C@@H](O)[C@]1(C)O ?
6.10

What pIC50 value was documented for this compound, CC[C@H]1OC(=O)[C@H](C)[C@@H](O[C@H]2C[C@@](C)(OC)[C@@H](O)[C@H](C)O2)[C@H](C)[C@@H](O[C@@H]2O[C@H](C)C[C@H](N(C)C)[C@H]2O)[C@](C)(O)C[C@@H](C)CN(CCCNC(=O)Nc2ccc3c(c2)OCO3)[C@H](C)[C@@H](O)[C@]1(C)O ?
6.08

---

System: Plasmodium falciparum
Test: Antimalarial activity against chloroquine-sensitive Plasmodium falciparum D6 assessed as inhibition of [3H]hypoxanthine incorporation after 96 hrs by microtiter plate scintillation counting
Assay type: functional, organism-based
METRIC NAME: IC50 (nM)
Expressed in nM, but write only the number.

What IC50 value was documented for this compound, CCC(C)NC(=O)NCCCN1C[C@H](C)C[C@@](C)(O)[C@H](O[C@@H]2O[C@H](C)C[C@H](N(C)C)[C@H]2O)[C@@H](C)[C@H](O[C@H]2C[C@@](C)(OC)[C@@H](O)[C@H](C)O2)[C@@H](C)C(=O)O[C@H](CC)[C@@](C)(O)[C@H](O)[C@H]1C (some centres not stated) ?
14000

What IC50 value was documented for this compound, CC[C@H]1OC(=O)[C@H](C)[C@@H](O[C@H]2C[C@@](C)(OC)[C@@H](O)[C@H](C)O2)[C@H](C)[C@@H](O[C@@H]2O[C@H](C)C[C@H](N(C)C)[C@H]2O)[C@](C)(O)C[C@@H](C)CN(CCCNC(=O)NC2CCN(C(=O)OCc3ccccc3)CC2)[C@H](C)[C@@H](O)[C@]1(C)O ?
635

What IC50 value was documented for this compound, CC[C@H]1OC(=O)[C@H](C)[C@@H](O[C@H]2C[C@@](C)(OC)[C@@H](O)[C@H](C)O2)[C@H](C)[C@@H](O[C@@H]2O[C@H](C)C[C@H](N(C)C)[C@H]2O)[C@](C)(O)C[C@@H](C)CN(CCCNC(=O)Nc2ccccc2-c2ccccc2)[C@H](C)[C@@H](O)[C@]1(C)O ?
254

What IC50 value was documented for this compound, CC[C@H]1OC(=O)[C@H](C)[C@@H](O[C@H]2C[C@@](C)(OC)[C@@H](O)[C@H](C)O2)[C@H](C)[C@@H](O[C@@H]2O[C@H](C)C[C@H](N(C)C)[C@H]2O)[C@](C)(O)C[C@@H](C)CN(CCCNC(=S)Nc2cccc3nsnc23)[C@H](C)[C@@H](O)[C@]1(C)O ?
176

What IC50 value was documented for this compound, CC[C@H]1OC(=O)[C@H](C)[C@@H](O[C@H]2C[C@@](C)(OC)[C@@H](O)[C@H](C)O2)[C@H](C)[C@@H](O[C@@H]2O[C@H](C)C[C@H](N(C)C)[C@H]2O)[C@](C)(O)C[C@@H](C)CN(CCCNC(=S)Nc2ccc(Cl)cc2)[C@H](C)[C@@H](O)[C@]1(C)O ?
188

What IC50 value was documented for this compound, CCNC(=O)NCCCN1C[C@H](C)C[C@@](C)(O)[C@H](O[C@@H]2O[C@H](C)C[C@H](N(C)C)[C@H]2O)[C@@H](C)[C@H](O[C@H]2C[C@@](C)(OC)[C@@H](O)[C@H](C)O2)[C@@H](C)C(=O)O[C@H](CC)[C@@](C)(O)[C@H](O)[C@H]1C ?
13700

What IC50 value was documented for this compound, CC[C@H]1OC(=O)[C@H](C)[C@@H](O[C@H]2C[C@@](C)(OC)[C@@H](O)[C@H](C)O2)[C@H](C)[C@@H](O[C@@H]2O[C@H](C)C[C@H](N(C)C)[C@H]2O)[C@](C)(O)C[C@@H](C)CN(CCCNC(=S)NC(c2ccccc2)(c2ccccc2)c2ccccc2)[C@H](C)[C@@H](O)[C@]1(C)O ?
125

---

Field: IC50. Provide a value for each of the compounds that follow.
Test system: Plasmodium falciparum
Assay: Antimalarial activity against chloroquine-sensitive Plasmodium falciparum D6 assessed as inhibition of [3H]hypoxanthine incorporation after 96 hrs by microtiter plate scintillation counting
Assay type: functional, organism-based
Expressed in nM, but write only the number.

Param readout = IC50; param system = Plasmodium falciparum; param query = CC[C@H]1OC(=O)[C@H](C)[C@@H](O[C@H]2C[C@@](C)(OC)[C@@H](O)[C@H](C)O2)[C@H](C)[C@@H](O[C@@H]2O[C@H](C)C[C@H](N(C)C)[C@H]2O)[C@](C)(O)C[C@@H](C)CN(CCCNC(=S)Nc2cc(Cl)cc(Cl)c2)[C@H](C)[C@@H](O)[C@]1(C)O ; response: value
116

Param readout = IC50; param system = Plasmodium falciparum; param query = CC[C@H]1OC(=O)[C@H](C)[C@@H](O[C@H]2C[C@@](C)(OC)[C@@H](O)[C@H](C)O2)[C@H](C)[C@@H](O[C@@H]2O[C@H](C)C[C@H](N(C)C)[C@H]2O)[C@](C)(O)C[C@@H](C)CN(CCCNC(=O)NC2CCCCC2)[C@H](C)[C@@H](O)[C@]1(C)O ; response: value
1960

Param readout = IC50; param system = Plasmodium falciparum; param query = CC[C@H]1OC(=O)[C@H](C)[C@@H](O[C@H]2C[C@@](C)(OC)[C@@H](O)[C@H](C)O2)[C@H](C)[C@@H](O[C@@H]2O[C@H](C)C[C@H](N(C)C)[C@H]2O)[C@](C)(O)C[C@@H](C)CN(CCCNC(=S)NC(=O)c2ccccc2)[C@H](C)[C@@H](O)[C@]1(C)O ; response: value
298

Param readout = IC50; param system = Plasmodium falciparum; param query = CC[C@H]1OC(=O)[C@H](C)[C@@H](O[C@H]2C[C@@](C)(OC)[C@@H](O)[C@H](C)O2)[C@H](C)[C@@H](O[C@@H]2O[C@H](C)C[C@H](N(C)C)[C@H]2O)[C@](C)(O)C[C@@H](C)CN(CCCNC(=O)Nc2ccc(C)cc2C)[C@H](C)[C@@H](O)[C@]1(C)O ; response: value
470

Param readout = IC50; param system = Plasmodium falciparum; param query = CC[C@H]1OC(=O)[C@H](C)[C@@H](O[C@H]2C[C@@](C)(OC)[C@@H](O)[C@H](C)O2)[C@H](C)[C@@H](O[C@@H]2O[C@H](C)C[C@H](N(C)C)[C@H]2O)[C@](C)(O)C[C@@H](C)CN(CCCNC(=S)NCCCl)[C@H](C)[C@@H](O)[C@]1(C)O ; response: value
12800

Param readout = IC50; param system = Plasmodium falciparum; param query = CC[C@H]1OC(=O)[C@H](C)[C@@H](O[C@H]2C[C@@](C)(OC)[C@@H](O)[C@H](C)O2)[C@H](C)[C@@H](O[C@@H]2O[C@H](C)C[C@H](N(C)C)[C@H]2O)[C@](C)(O)C[C@@H](C)CN(CCCNC(=S)Nc2ccc(N(CC)CC)cc2)[C@H](C)[C@@H](O)[C@]1(C)O ; response: value
765

Param readout = IC50; param system = Plasmodium falciparum; param query = CC[C@H]1OC(=O)[C@H](C)[C@@H](O[C@H]2C[C@@](C)(OC)[C@@H](O)[C@H](C)O2)[C@H](C)[C@@H](O[C@@H]2O[C@H](C)C[C@H](N(C)C)[C@H]2O)[C@](C)(O)C[C@@H](C)CN(CCCNC(=S)Nc2ccc(/N=N/c3ccccc3)cc2)[C@H](C)[C@@H](O)[C@]1(C)O ; response: value
107

---

Tested on: Plasmodium falciparum
Assay: Antimalarial activity against chloroquine-sensitive Plasmodium falciparum D6 assessed as inhibition of [3H]hypoxanthine incorporation after 96 hrs by microtiter plate scintillation counting
Assay type: functional, organism-based
METRIC NAME: IC50 (nM)
Expressed in nM, but write only the number.

What IC50 value was documented for this compound, CC[C@H]1OC(=O)[C@H](C)[C@@H](O[C@H]2C[C@@](C)(OC)[C@@H](O)[C@H](C)O2)[C@H](C)[C@@H](O[C@@H]2O[C@H](C)C[C@H](N(C)C)[C@H]2O)[C@](C)(O)C[C@@H](C)CN(CCCNC(=O)Nc2ccc(C(C)C)cc2)[C@H](C)[C@@H](O)[C@]1(C)O ?
225

What IC50 value was documented for this compound, CC[C@H]1OC(=O)[C@H](C)[C@@H](O[C@H]2C[C@@](C)(OC)[C@@H](O)[C@H](C)O2)[C@H](C)[C@@H](O[C@@H]2O[C@H](C)C[C@H](N(C)C)[C@H]2O)[C@](C)(O)C[C@@H](C)CN(CCCNC(=S)Nc2ccc(OCc3ccccc3)cc2)[C@H](C)[C@@H](O)[C@]1(C)O ?
249

What IC50 value was documented for this compound, CC[C@H]1OC(=O)[C@H](C)[C@@H](O[C@H]2C[C@@](C)(OC)[C@@H](O)[C@H](C)O2)[C@H](C)[C@@H](O[C@@H]2O[C@H](C)C[C@H](N(C)C)[C@H]2O)[C@](C)(O)C[C@@H](C)CN(CCCNC(=O)Nc2ccc(C)cc2)[C@H](C)[C@@H](O)[C@]1(C)O ?
330

What IC50 value was documented for this compound, CC[C@H]1OC(=O)[C@H](C)[C@@H](O[C@H]2C[C@@](C)(OC)[C@@H](O)[C@H](C)O2)[C@H](C)[C@@H](O[C@@H]2O[C@H](C)C[C@H](N(C)C)[C@H]2O)[C@](C)(O)C[C@@H](C)CN(CCCNC(=S)NCCN2CCOCC2)[C@H](C)[C@@H](O)[C@]1(C)O ?
12400
